These entries and their values trace back to patent US8637677B2.

Tested on: in vitro eye lens of rats
Test: resisting oxidative damage to in vitro eye lens of rats induced by H2O2 (lens opacification grading)
Format: cell-based
Details: rat lens, 5% H2O2 + 0.02% FeCl3, 24 h culture; sample and BDL 0.5 mmol/L, vitamin C 1 mmol/L
Give measured Percentages % + Degree (I) for each item. Keep answers brief.
One number for each entry, in %.

Known Percentages % + Degree (I) results, listed for orientation:
| compound | Percentages % + Degree (I) [%] |
| --- | --- |
| NCCCC[C@H](N)C(=O)O.NCCCC[C@H](N)C(=O)O.O=C(O)C(Oc1nn(Cc2cccc(F)c2)c2ccccc12)C(=O)O | 56 |
| O=C([O-])C(Oc1nn(Cc2cccc(F)c2)c2ccccc12)C(=O)[O-].[Na+].[Na+] | 60 |
| NCCCC[C@H](N)C(=O)O.NCCCC[C@H](N)C(=O)O.O=C(O)C(Oc1nn(Cc2cccc(Cl)c2)c2ccccc12)C(=O)O | 56 |
| O=C1O[C@H]([C@@H](O)CO)C(O)=C1O [VC, vitamin C, reference compound] | 39 |
| O=C(O)COc1nn(Cc2ccccc2)c2ccccc12 [BDL, Bendazac lysine, reference compound] | 54 |

Answer for every listed entry: what is its Percentages % + Degree (I)? The entries follow.
1. NCCCC[C@H](N)C(=O)O.NCCCC[C@H](N)C(=O)O.O=C(O)C(Oc1nn(Cc2ccccc2)c2ccccc12)C(=O)O
2. O=C([O-])C(Oc1nn(Cc2ccccc2)c2ccccc12)C(=O)[O-].[Na+].[Na+]
3. N[C@@H](Cc1c[nH]cn1)C(=O)O.N[C@@H](Cc1c[nH]cn1)C(=O)O.O=C(O)C(Oc1nn(Cc2ccccc2)c2ccccc12)C(=O)O

A)
1. 17
2. 80
3. 86

----------
Tested on: in vitro eye lens of rats
Assay: resisting oxidative damage to in vitro eye lens of rats induced by H2O2 (lens opacification grading)
Format: cell-based
Settings: rat lens, 5% H2O2 + 0.02% FeCl3, 24 h culture; sample and BDL 0.5 mmol/L, vitamin C 1 mmol/L
With a cut-off of 8, any Observation Results ++ (number of lenses with moderate opacity, degree II) strictly below it is called criterion met; any Observation Results ++ (number of lenses with moderate opacity, degree II) meeting it or above is called criterion not met.

Consider the worked cases shown below.
| compound | category |
| --- | --- |
| O=C(O)COc1nn(Cc2ccccc2)c2ccccc12 [BDL, Bendazac lysine, reference compound] | criterion not met |
| NCCCC[C@H](N)C(=O)O.NCCCC[C@H](N)C(=O)O.O=C(O)C(Oc1nn(Cc2cccc(Cl)c2)c2ccccc12)C(=O)O | criterion not met |
| O=C([O-])C(Oc1nn(Cc2cccc(F)c2)c2ccccc12)C(=O)[O-].[Na+].[Na+] | criterion not met |

Q) Problem: For the compound O=C([O-])C(Oc1nn(Cc2ccccc2)c2ccccc12)C(=O)[O-].[K+].[K+] , is Observation Results ++ (number of lenses with moderate opacity, degree II) under 8?
A) criterion met

Q) Problem: For the compound O=C([O-])C(Oc1nn(Cc2ccccc2)c2ccccc12)C(=O)[O-].[Na+].[Na+] , is Observation Results ++ (number of lenses with moderate opacity, degree II) under 8?
A) criterion met

Q) Problem: For the compound N[C@@H](Cc1c[nH]cn1)C(=O)O.N[C@@H](Cc1c[nH]cn1)C(=O)O.O=C(O)C(Oc1nn(Cc2ccccc2)c2ccccc12)C(=O)O , is Observation Results ++ (number of lenses with moderate opacity, degree II) under 8?
A) criterion met

Q) Problem: For the compound NCCCC[C@H](N)C(=O)O.NCCCC[C@H](N)C(=O)O.O=C(O)C(Oc1nn(Cc2ccccc2)c2ccccc12)C(=O)O , is Observation Results ++ (number of lenses with moderate opacity, degree II) under 8?
A) criterion met
